Target: Recombinant human TDO comprising amino acids 19-407 (Homo sapiens (Human))
Sequence (P48775 19-406 limits assumed): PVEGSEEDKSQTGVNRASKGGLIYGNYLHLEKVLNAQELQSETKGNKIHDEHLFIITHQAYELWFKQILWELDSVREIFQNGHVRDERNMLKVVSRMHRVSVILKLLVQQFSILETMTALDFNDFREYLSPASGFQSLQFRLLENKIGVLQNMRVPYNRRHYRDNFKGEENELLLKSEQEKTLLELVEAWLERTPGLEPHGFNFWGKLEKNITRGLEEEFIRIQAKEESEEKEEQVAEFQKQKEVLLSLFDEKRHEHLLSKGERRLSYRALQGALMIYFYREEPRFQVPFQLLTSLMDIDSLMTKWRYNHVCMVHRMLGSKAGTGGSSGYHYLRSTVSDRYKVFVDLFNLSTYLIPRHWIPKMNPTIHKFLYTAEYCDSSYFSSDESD
Test: TDO2 enzymatic assay (TDO inhibitory activity)
Type: biochemical
Conditions: 15 nM enzyme, 200 μM L-tryptophan, pH7, 30 min pre-incubation, NFK quantified by LCMS; mean values if measured multiple times; read-out: hTDO activity (IC50 in nM)
RECORDED METRIC: log10 of IC50 (log10 of the value in nM)

>>> quantitative_result("CC1(CC(O)c2c(C3CC3)sc3cncn23)CCCCC1 (racemic) [Example 23]")
2.31
>>> quantitative_result("CC1(C)CCC(CC(O)c2c(C3CC3)sc3cncn23)C1 (centres unmarked) [Example 34]")
2.51
>>> quantitative_result("CCc1sc2cncn2c1C(O)c1ccccc1 (racemic) [Example 176]")
2.29
>>> quantitative_result("CCc1sc2cncn2c1[C@@H](O)C1CCCCC1 [Example 96a]")
1.30
>>> quantitative_result("CC1(C)CCC(C[C@H](O)c2c(C3CC3)sc3cncn23)C1 (some centres unmarked) [Example 34a]")
2.42
